- targetUnderTest: hMAO-B (Homo sapiens, UniProt P27338)
- Construct: purchased Sigma-Aldrich (Steinheim, Germany)
- Sequence (P27338 1-520): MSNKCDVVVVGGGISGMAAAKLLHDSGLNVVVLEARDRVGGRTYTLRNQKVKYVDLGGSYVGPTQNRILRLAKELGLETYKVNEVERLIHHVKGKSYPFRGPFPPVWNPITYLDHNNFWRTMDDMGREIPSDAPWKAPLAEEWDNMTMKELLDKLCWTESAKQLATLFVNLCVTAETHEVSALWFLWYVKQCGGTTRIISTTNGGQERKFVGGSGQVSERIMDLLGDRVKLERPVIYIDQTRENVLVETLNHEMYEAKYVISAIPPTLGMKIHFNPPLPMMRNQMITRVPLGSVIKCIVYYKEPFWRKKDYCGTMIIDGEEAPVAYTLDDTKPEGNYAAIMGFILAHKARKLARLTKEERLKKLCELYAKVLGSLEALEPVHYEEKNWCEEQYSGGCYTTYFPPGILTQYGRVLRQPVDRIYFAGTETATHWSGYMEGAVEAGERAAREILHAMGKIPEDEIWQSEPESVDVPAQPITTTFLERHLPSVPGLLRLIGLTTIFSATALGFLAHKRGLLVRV
- experiment: MAO-B inhibition assay, fluorometric (Amplex Red / horseradish peroxidase-coupled);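 also: fluorescence read at Ex 535 nm and Em 587 nm over 30 min, linear phase, inhibition relative to uninhibited control wells, IC50 from log concentration–response curves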
- Assay type: biochemical
- runConditions: 10^−3 M
The entries below come with measured inhibition at 1000 µM values attached.

compound | inhibition at 1000 µM
COc1ccc2sc(SCC(=O)N(Cc3ccccc3)c3ccc(S(N)(=O)=O)cc3)nc2c1 [Compound 4j] | 90.8%
Cc1nnc(SCC(=O)N(Cc2ccccc2)c2ccc(S(N)(=O)=O)cc2)s1 [Compound 4c] | 91.1%
Cc1ccc(CN(C(=O)CSc2nnc(C)s2)c2ccc(S(N)(=O)=O)cc2)cc1 [Compound 4m] | 76.3%
Cc1ccc(CN(C(=O)CSc2nccn2C)c2ccc(S(N)(=O)=O)cc2)cc1 [Compound 4k] | 79.5%
NS(=O)(=O)c1ccc(N(Cc2ccccc2)C(=O)CSc2nc3ccccc3o2)cc1 [Compound 4g] | 94.7%
NS(=O)(=O)c1ccc(N(Cc2ccccc2)C(=O)CSc2nnnn2-c2ccccc2)cc1 [Compound 4e] | 90.1%
NS(=O)(=O)c1ccc(N(Cc2ccccc2)C(=O)CSc2ccccn2)cc1 [Compound 4f] | 90.6%
Cc1ccc(CN(C(=O)CSc2nncn2C)c2ccc(S(N)(=O)=O)cc2)cc1 [Compound 4l] | 74.2%
COc1ccc2sc(SCC(=O)N(Cc3ccc(C)cc3)c3ccc(S(N)(=O)=O)cc3)nc2c1 [Compound 4u] | 65.1%
NS(=O)(=O)c1ccc(N(Cc2ccccc2)C(=O)CSc2nc3ccccc3s2)cc1 [Compound 4h] | 96.2%
Cn1nnnc1SCC(=O)N(Cc1ccccc1)c1ccc(S(N)(=O)=O)cc1 [Compound 4d] | 91.6%
Cn1ccnc1SCC(=O)N(Cc1ccccc1)c1ccc(S(N)(=O)=O)cc1 [Compound 4a] | 92.3%
